Data provenance is patent US20240117334A1.

molecular target: Human Factor B (human) (UniProt P00751); assay: cell-based or functional assay
Sequence (P00751 26-764 limits assumed): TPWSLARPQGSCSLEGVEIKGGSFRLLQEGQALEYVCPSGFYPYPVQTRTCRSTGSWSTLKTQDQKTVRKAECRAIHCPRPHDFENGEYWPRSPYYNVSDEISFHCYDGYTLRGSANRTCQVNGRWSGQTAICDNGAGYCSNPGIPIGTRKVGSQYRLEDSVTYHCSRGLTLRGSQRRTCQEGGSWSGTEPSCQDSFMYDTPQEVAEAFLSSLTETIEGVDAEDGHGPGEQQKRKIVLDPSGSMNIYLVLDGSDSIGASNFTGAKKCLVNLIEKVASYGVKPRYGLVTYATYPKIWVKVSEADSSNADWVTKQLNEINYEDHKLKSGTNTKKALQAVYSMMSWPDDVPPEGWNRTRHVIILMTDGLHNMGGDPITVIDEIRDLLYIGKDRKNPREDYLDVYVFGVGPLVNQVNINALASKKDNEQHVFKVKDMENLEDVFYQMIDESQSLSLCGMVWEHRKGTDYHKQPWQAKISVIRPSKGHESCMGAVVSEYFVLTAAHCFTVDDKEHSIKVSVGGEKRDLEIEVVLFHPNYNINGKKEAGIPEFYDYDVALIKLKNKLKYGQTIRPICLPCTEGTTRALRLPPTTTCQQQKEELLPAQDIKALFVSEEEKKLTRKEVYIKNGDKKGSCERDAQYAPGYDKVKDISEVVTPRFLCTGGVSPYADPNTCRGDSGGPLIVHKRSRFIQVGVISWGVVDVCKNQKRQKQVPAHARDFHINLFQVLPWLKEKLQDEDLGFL
METRIC_NAME: fB Cleavage EC50 (nM)
Just the number please, in nM, no unit attached.

Worked set:
Input chymase C22S/P38Q/K40M/F41R/L99S/V138I/F173Y/D175N/A190S/V213A/S218V/A226R (enzyme) IIGGTESKPHSRPYMAYLEIVTSNGQSMRCGGFLIRRNFVLTAAHCAGRSITVTLGAHNITEEEDTWQKLEVIKQFRHPKYNTSTSHHDIMLLKLKEKASLTLAVGTLPFPSQFNFVPPGRMCRIAGWGRTGVLKPGSDTLQEVKLRLMDPQACSHYRNFDHNLQLCVGNPRKTKSSFKGDSGGPLLCAGVAQGIASYGRVDAKPPRVFTRISHYRPWINQILQAN . Output fB Cleavage EC50: 472

What the record says about chymase C22S/P38Q/K40M/F41R/L99F/V138I/F173L/D175N/A190S/V213A/A226R (enzyme) IIGGTESKPHSRPYMAYLEIVTSNGQSMRCGGFLIRRNFVLTAAHCAGRSITVTLGAHNITEEEDTWQKLEVIKQFRHPKYNTSTFHHDIMLLKLKEKASLTLAVGTLPFPSQFNFVPPGRMCRIAGWGRTGVLKPGSDTLQEVKLRLMDPQACSHLRNFDHNLQLCVGNPRKTKSSFKGDSGGPLLCAGVAQGIASYGRSDAKPPRVFTRISHYRPWINQILQAN : fB Cleavage EC50 is 870

Measured fB Cleavage EC50 of chymase C22S/P38Q/K40A/F41R/V138I/F173S/D175T/A190S/V213A/S218V/A226R (enzyme) IIGGTESKPHSRPYMAYLEIVTSNGQSARCGGFLIRRNFVLTAAHCAGRSITVTLGAHNITEEEDTWQKLEVIKQFRHPKYNTSTLHHDIMLLKLKEKASLTLAVGTLPFPSQFNFVPPGRMCRIAGWGRTGVLKPGSDTLQEVKLRLMDPQACSHSRTFDHNLQLCVGNPRKTKSSFKGDSGGPLLCAGVAQGIASYGRVDAKPPRVFTRISHYRPWINQILQAN : 1720

The binder listed as chymase C22S/F41R/L99H/F173Y/Y215K/A226R (enzyme) IIGGTESKPHSRPYMAYLEIVTSNGPSKRCGGFLIRRNFVLTAAHCAGRSITVTLGAHNITEEEDTWQKLEVIKQFRHPKYNTSTHHHDIMLLKLKEKASLTLAVGTLPFPSQFNFVPPGRMCRVAGWGRTGVLKPGSDTLQEVKLRLMDPQACSHYRDFDHNLQLCVGNPRKTKSAFKGDSGGPLLCAGVAQGIVSKGRSDAKPPRVFTRISHYRPWINQILQAN has a reported fB Cleavage EC50 of 4800

Others:
Note to self: fB Cleavage EC50 recorded for chymase C22S/K40M/F41I/L99H/G151R/F173S/S218L/A226R (enzyme) IIGGTESKPHSRPYMAYLEIVTSNGPSMICGGFLIRRNFVLTAAHCAGRSITVTLGAHNITEEEDTWQKLEVIKQFRHPKYNTSTHHHDIMLLKLKEKASLTLAVGTLPFPSQFNFVPPGRMCRVAGWGRTGVLKPRSDTLQEVKLRLMDPQACSHSRDFDHNLQLCVGNPRKTKSAFKGDSGGPLLCAGVAQGIVSYGRLDAKPPRVFTRISHYRPWINQILQAN was 8200
